# TARGET_OR_TEST_SYSTEM: T1, rat B7H3-His (rat, UniProt Q7TPB4 29-244, limits assumed)
# T1 construct: not shown: His tag
# T1 sequence (looked up): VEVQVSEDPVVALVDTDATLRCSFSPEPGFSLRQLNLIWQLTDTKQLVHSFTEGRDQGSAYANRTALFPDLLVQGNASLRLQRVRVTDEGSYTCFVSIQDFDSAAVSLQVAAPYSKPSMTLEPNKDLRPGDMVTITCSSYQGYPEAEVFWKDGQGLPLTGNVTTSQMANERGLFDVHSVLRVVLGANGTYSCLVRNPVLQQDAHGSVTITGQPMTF
# ASSAY_OVERVIEW: ELISA, purified VHH
EXPERIMENTAL_READOUT: ELISA signal
No unit in the answer, please; the number alone is enough.

RWB12 (VHH, Camel VHH; tag not described; also called camel antibody RWB12) VHH: QVQLVESGGGSVQVGGSLRLSCAASGFTYNSYSVGWFRQAPGKEREGVAAINSGGSSTYYAASVKGRFTISRDNAKNTVYLQMNSLKPEDTAMYYCAARSPSPLTFQTRTLREDSYNYWGQGTQVTVSS: 0.0574

IN: Which ELISA signal value is on record for RWB2 (VHH, Camel VHH; tag not described; also called camel antibody RWB2) VHH: AVQLVDSGGGSVQAGGSLRLSCVVSGYAFSTYDMAWFRQAPGEKCEWVSTVTNNGRTFYADSVKGRFIISRDNAKNILYLQMNSLKPEDTAVYSCAAAGVRWRCASGGNEGTQVTVSS ?
OUT: 0.0986
